Every entry's value here was drawn from the NIST ThermoML archive (doi:10.1021/je100170v).

conditions: 308.15 K; 101.3 kPa; Liquid
OBSERVABLE: viscosity (mPa·s)

| MOLECULE | viscosity / mPa·s |
| --- | --- |
| CC(=O)c1ccccc1 | 1.411 |

A = COCCO
B = CC(=O)N(C)C [N,N-dimethylethanamide]
C = CCCCCCCCO
Inquiry: Sort the 3 molecules by viscosity; largest first, smallest last. List labels; respect the requested ordering.
Reply text: C, A, B

----------
conditions: 318.15 K; 101.3 kPa; Liquid
OBSERVABLE: viscosity (mPa·s)

| COMPOUND | viscosity, mPa·s |
| --- | --- |
| COCCO | 1.047 |

I = CC(=O)N(C)C [N,N-dimethylethanamide]
II = CC(=O)c1ccccc1
III = CCCCCCCCO
Inquiry: Reorder: viscosity, max to min. To answer, write out the labels according to the requested order.
Reply text: III, II, I
